pKi: −log10 of the molar value.
These records show pKi for CtPilB (Chloracidobacterium thermophilum, UniProt G2LDI3).
METRIC: pKi

- NC(CO)C(=O)NNCc1ccc(O)c(O)c1O (centres unmarked) [benserazide]: 5.64
- N[C@@H](Cc1ccc(O)c(O)c1)C(=O)O [levodopa, 3,4-dihydroxyphenylalanine]: 5.47

====

TARGET_DESC: CtPilB (Chloracidobacterium thermophilum, UniProt G2LDI3)
Sequence (G2LDI3 entry or part of it): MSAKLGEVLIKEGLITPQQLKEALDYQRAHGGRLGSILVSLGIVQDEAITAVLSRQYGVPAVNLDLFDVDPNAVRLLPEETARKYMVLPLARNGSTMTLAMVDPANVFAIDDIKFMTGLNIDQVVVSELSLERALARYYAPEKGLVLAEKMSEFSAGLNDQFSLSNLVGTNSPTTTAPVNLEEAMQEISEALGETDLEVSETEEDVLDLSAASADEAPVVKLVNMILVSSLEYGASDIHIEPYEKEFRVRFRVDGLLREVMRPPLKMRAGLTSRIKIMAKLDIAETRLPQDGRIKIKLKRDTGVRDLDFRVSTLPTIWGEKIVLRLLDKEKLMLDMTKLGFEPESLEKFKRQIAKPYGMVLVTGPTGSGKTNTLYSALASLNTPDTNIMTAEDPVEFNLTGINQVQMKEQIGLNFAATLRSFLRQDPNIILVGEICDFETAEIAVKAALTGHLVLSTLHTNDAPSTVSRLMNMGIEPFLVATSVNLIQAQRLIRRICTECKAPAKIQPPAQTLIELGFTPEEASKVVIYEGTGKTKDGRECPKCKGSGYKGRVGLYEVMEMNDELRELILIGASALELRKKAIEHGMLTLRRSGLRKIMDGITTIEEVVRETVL
METHOD: Malachite green ATPase assay, dose response (benchtop)
Type: biochemical
RECORDED_CONDITIONS: IC50, CtPilB ATPase activity, full-length CtPilB, curve fitting, three independent experiments
pIC50: −log10 of the molar value.
METRIC: pIC50

• NC(CO)C(=O)NNCc1ccc(O)c(O)c1O (stereo not shown) [benserazide] = 5.68

====

TARGET_DESC: CtPilBΔN (Chloracidobacterium thermophilum, UniProt G2LDI3)
Sequence (G2LDI3 140-614, stated change not applied): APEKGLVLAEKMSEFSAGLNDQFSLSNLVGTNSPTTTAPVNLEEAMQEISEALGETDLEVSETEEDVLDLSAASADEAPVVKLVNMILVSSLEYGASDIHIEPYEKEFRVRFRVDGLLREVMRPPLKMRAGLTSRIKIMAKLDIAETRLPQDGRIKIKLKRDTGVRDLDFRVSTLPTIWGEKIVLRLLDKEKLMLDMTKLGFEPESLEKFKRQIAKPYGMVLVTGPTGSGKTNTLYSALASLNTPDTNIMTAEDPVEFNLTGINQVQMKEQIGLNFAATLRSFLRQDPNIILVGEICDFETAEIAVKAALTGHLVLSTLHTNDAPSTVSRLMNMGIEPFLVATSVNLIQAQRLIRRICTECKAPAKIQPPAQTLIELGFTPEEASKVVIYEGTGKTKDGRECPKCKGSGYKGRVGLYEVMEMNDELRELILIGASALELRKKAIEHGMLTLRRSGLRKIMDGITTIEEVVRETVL
METHOD: ATPase assay of truncated CtPilB variant without N-terminal MshEN domain
RECORDED_CONDITIONS: read-out: IC50, ATPase activity of PilBΔN
pIC50: −log10 of the molar value.
This section presents compounds with their documented pIC50 values.
METRIC: pIC50

* N[C@@H](Cc1ccc(O)c(O)c1)C(=O)O [levodopa, 3,4-dihydroxyphenylalanine] | 4.12
* NC(CO)C(=O)NNCc1ccc(O)c(O)c1O (centres unmarked) [benserazide] | 5.66
